Multiple publications report Ki for Adenosine receptor A1 (Homo sapiens, UniProt P30542); what follows is a combined list.

See these solved cases before continuing.
>>> value_reported("Cc1ccc2c(Cl)c(Cc3ccccc3)cnc2n1")
"> 10 µM"
>>> value_reported("COc1ccc(-c2cc3cccc(OC)c3oc2=O)cc1")
"> 100 µM"

Which Ki reading was recorded for the compound O=C(Nc1cccnc1)Nc1nc2nn(CCOCc3ccccc3)cc2c2nc(-c3ccco3)nn12 ? > 1 µM

Query (compound): O=c1ccc(Nc2ncc(-c3ccncn3)c(-c3ccco3)n2)cn1CC1CC1 ; field requested: Ki > 10 µM

Field request: Ki | item: Cc1nc(NC(=O)c2ccc(Cl)cc2)c2nc(-c3ccccc3)sc2n1 > 30 µM

Requested read-out: Ki. Entry: CCOc1cccc2cc(-c3ccc(C)cc3)c(=O)oc12 > 100 µM

Returns the measured Ki for the input compound. Input: C#CCOc1ccc(-c2cn3c(=O)n(-c4ccccc4)nc3c(N)n2)cc1 > 30 µM

I am curious: what Ki value has been reported for Cn1c(=O)c2nc(-c3cnn(Cc4ccccc4)c3)[nH]c2n(C)c1=O ? > 6 µM

----------
Sequence of the target: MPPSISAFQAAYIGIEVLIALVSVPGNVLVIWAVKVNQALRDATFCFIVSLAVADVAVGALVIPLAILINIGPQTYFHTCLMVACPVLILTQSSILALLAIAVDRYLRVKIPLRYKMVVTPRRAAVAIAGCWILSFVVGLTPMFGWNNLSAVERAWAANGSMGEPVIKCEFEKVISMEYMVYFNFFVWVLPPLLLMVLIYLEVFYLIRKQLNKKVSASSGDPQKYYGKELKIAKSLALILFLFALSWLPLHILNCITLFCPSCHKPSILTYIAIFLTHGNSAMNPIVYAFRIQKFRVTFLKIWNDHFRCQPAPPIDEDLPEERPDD
Please find below Ki data on the protein given by its sequence compiled from the literature.
assay.endpoint: Ki (nM)

Some compounds with known Ki results, for comparison:
>>> value_reported("CCCOc1cc(NC(C)=O)nc(SCCC)n1")
5470
>>> value_reported("Cc1nc2c(=O)n(Cc3ccccc3)nc(Cl)c2c2cc(-c3ccccc3)nn12")
1620
>>> value_reported("N#Cc1c(-c2ccc(O)cc2)cc(-c2ccco2)nc1N")
54

P = O=C(Cc1ccccc1)Nc1ncc(C(=O)NCCc2ccccc2)c2nc(-c3ccco3)nn12
Q = CCCCn1c(Br)nc2c(N)ncnc21
R = CCCn1c(=O)c2[nH]c(-c3ccc(OCC(=O)Nc4ccc(Br)cc4)cc3)c(O)c2n(CCC)c1=O
Sort low-to-high on Ki, please. Field: ranking. Enter the labels in the order requested. R, P, Q

A = COc1ccccc1Cc1nc(N)c2nn(-c3ccccc3)cc2n1
B = Nc1nc(C(=O)NCc2cccc3c2OCCO3)c2cccc(F)c2n1
C = CCCCNC(=O)[C@H]1CC[C@H](c2nc3c(=O)n(CCC)c(=O)n(CCC)c3[nH]2)CC1
D = Nc1nc(-c2ccccc2)nc(-c2ccccc2O)n1
Order the records by Ki, with each subsequent value no larger than the one before. Thanks in advance for listing the labels in the requested order. A, B, C, D
(A: 375 nM, B: 103 nM, C: 46 nM, D: 7.2 nM)

a = COc1ccc(C(=O)Nc2nc(-c3ccccc3)c(C(=O)c3ccc(C)cc3)s2)cc1
b = CCCCCNc1nc2nn(C)cc2c2nc(-c3ccco3)nn12
Kindly identify which of a and b has the larger recorded Ki value. Please reply using the label of the selected record. b
(b: 481 nM, a: 9.69 nM)

a = CCCC(=O)Nc1nc(-c2ccccc2)nc(-c2ccc3c(c2)OCO3)c1C#N
b = CCN(C(C)=O)c1ccc(OC)c2nc(NC(=O)C3CCN(S(=O)(=O)c4cccc(C(F)(F)F)c4)CC3)sc12
Could you tell me which of these two has the smaller Ki figure? First: a Second: b Output the label that corresponds to your choice. a
